Where do the numbers come from? From patent US6881741B2.

Documented IC50 across a set of compounds
target: recombinant HCV NS5B (HCV RNA-dependent RNA polymerase) (Hepatitis C virus genotype 1b)
assay.procedure: biochemical
experimental.setup: related polymerase activity (Example 27 list); read-out: IC50

Example cases with answers are listed next.
Q) What does the data say about its IC50? Entry: CN(C(=O)c1ccc2ccccc2c1)c1cc(-c2ccccc2)sc1C(=O)O
A) 5 to 20 µM

Q) What does the record list as IC50 for CC(=O)c1ccc(-c2cc(N(C(=O)c3ccc(Cl)cc3Cl)C(C)C)c(C(=O)O)s2)s1 ?
A) < 5 µM

Q) Param item = O=C(O)c1sc(-c2ccccc2)cc1NS(=O)(=O)c1ccc(Cl)cc1Cl ; retrieve measured IC50.
A) < 5 µM

---
Q) Any idea what IC50 was measured for CC(c1ccccc1)N(C(=O)c1ccc(Cl)cc1Cl)c1cc(-c2ccccc2)sc1C(=O)O (centres unmarked) ?
A) < 5 µM

Q) Please give the measured IC50 for this compound: CN(C(=O)c1ccc(Cl)cc1Br)c1cc(-c2ccccc2)sc1C(=O)O
A) < 5 µM

###

target: recombinant HCV NS5B (HCV RNA-dependent RNA polymerase) (Hepatitis C virus genotype 1b, UniProt P26663)
Sequence (P26663 2420-3010 limits assumed): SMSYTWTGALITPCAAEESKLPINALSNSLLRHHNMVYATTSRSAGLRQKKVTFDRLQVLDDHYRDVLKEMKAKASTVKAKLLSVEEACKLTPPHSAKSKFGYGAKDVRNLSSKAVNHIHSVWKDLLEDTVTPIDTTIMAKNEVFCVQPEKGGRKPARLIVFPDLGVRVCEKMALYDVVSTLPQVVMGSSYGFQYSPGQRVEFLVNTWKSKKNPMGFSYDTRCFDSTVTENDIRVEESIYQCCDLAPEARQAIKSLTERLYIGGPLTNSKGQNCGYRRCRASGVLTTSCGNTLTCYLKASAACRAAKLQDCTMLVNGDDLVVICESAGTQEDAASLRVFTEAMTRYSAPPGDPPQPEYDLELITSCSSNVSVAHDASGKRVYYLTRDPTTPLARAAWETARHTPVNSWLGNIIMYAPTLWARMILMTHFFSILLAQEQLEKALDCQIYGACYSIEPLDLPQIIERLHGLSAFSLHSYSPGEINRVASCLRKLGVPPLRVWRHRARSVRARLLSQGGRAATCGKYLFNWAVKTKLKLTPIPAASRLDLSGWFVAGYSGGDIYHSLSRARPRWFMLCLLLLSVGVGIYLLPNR
assay.procedure: biochemical
experimental.setup: related polymerase activity (Example 27 list); read-out: IC50
measurement.label: IC50

Past entries and their recorded results:
Q) What IC50 value was documented for this compound, CC(C)N(C(=O)c1ccc(Cl)cc1Cl)c1cc(-c2ccc(F)cc2)sc1C(=O)O ?
A) < 5 µM

Q) Suppose we examine the compound O=C(O)c1sc(-c2ccc(F)cc2)cc1NS(=O)(=O)c1ccccc1 ; what IC50 value has been reported?
A) < 5 µM

Q) Which IC50 value belongs to O=C(O)c1sc(-c2ccccc2)cc1NS(=O)(=O)c1ccc([N+](=O)[O-])cc1 ?
A) 5 to 20 µM

Q) What does the record list as IC50 for CCCN(C(=O)c1ccc(C)cc1)c1cc(-c2ccc(CCC(=O)O)cc2)sc1C(=O)O ?
A) 5 to 20 µM

Q) Record request: IC50 value, item O=C(O)c1sc(-c2ccccc2)cc1NS(=O)(=O)c1ccccc1Br
A) < 5 µM

Q) Requested read-out: IC50. Entry: O=C(O)c1sc(-c2ccccc2)cc1N(C(=O)c1ccc(Cl)cc1Cl)C1CCCC1
A) < 5 µM

Q) // lookup IC50 for O=C(Nc1cc(-c2ccccc2)sc1C(=O)O)c1ccc(Cl)cc1
A) 5 to 20 µM

# evaluate next
Q) I'd like to know its IC50. The compound in question is CC(C)N(C(=O)c1ccc(Cl)cc1F)c1cc(-c2ccccc2)sc1C(=O)O
A) < 5 µM

###

We begin with a simple list: items and their reported IC50.
target: recombinant HCV NS5B (HCV RNA-dependent RNA polymerase) (Hepatitis C virus genotype 1b)
assay.procedure: biochemical
experimental.setup: related polymerase activity (Example 27 list); read-out: IC50

The examples below pair each entry with its known result.
Q) Record lookup: for recombinant HCV NS5B (HCV RNA-dependent RNA polymerase) (Hepatitis C virus genotype 1b), what IC50 belongs to O=C(O)c1sc(-c2ccccc2)cc1NS(=O)(=O)c1ccc(Br)cc1 ?
A) < 5 µM

Q) Test system recombinant HCV NS5B (HCV RNA-dependent RNA polymerase) (Hepatitis C virus genotype 1b); read-out IC50; what value for Cc1ccccc1S(=O)(=O)Nc1cc(-c2cccs2)sc1C(=O)O ?
A) < 5 µM

Q) API: value(readout= IC50, system= recombinant HCV NS5B (HCV RNA-dependent RNA polymerase) (Hepatitis C virus genotype 1b), query= CN(C(=O)c1ccc(Cl)nc1Cl)c1cc(-c2ccccc2)sc1C(=O)O )
A) 5 to 20 µM

Others:
Q) Lab note: need IC50 for O=C(O)c1sc(-c2ccc([N+](=O)[O-])cc2)cc1NS(=O)(=O)c1ccccn1 on recombinant HCV NS5B (HCV RNA-dependent RNA polymerase) (Hepatitis C virus genotype 1b), anyone have it?
A) 5 to 20 µM

Q) Request: IC50, test system recombinant HCV NS5B (HCV RNA-dependent RNA polymerase) (Hepatitis C virus genotype 1b), entry Cc1ccc(S(=O)(=O)Nc2cc(-c3ccc(C#N)cc3)sc2C(=O)O)c(C)c1
A) < 5 µM

Q) Reported IC50 for recombinant HCV NS5B (HCV RNA-dependent RNA polymerase) (Hepatitis C virus genotype 1b), given Cc1ccc(S(=O)(=O)Nc2cc(-c3ccccc3)sc2C(=O)O)c(C)c1 ?
A) < 5 µM

Q) Find the measured IC50: item Cc1cc(Br)ccc1S(=O)(=O)Nc1cc(-c2ccc(CC(C)C)cc2)sc1C(=O)O , target or system recombinant HCV NS5B (HCV RNA-dependent RNA polymerase) (Hepatitis C virus genotype 1b).
A) > 20 µM

Q) For the record Cc1ccccc1S(=O)(=O)Nc1cc(-c2cc3ccccc3o2)sc1C(=O)O , what value of IC50 is listed for recombinant HCV NS5B (HCV RNA-dependent RNA polymerase) (Hepatitis C virus genotype 1b)?
A) < 5 µM
